From: patent US10450306B2

Tested Target: human FXR (NR1H4) (Homo sapiens, UniProt Q96RI1)
Construct: host or cells: CHO (Chinese hamster ovary) reporter cells
Sequence (Q96RI1 1-486): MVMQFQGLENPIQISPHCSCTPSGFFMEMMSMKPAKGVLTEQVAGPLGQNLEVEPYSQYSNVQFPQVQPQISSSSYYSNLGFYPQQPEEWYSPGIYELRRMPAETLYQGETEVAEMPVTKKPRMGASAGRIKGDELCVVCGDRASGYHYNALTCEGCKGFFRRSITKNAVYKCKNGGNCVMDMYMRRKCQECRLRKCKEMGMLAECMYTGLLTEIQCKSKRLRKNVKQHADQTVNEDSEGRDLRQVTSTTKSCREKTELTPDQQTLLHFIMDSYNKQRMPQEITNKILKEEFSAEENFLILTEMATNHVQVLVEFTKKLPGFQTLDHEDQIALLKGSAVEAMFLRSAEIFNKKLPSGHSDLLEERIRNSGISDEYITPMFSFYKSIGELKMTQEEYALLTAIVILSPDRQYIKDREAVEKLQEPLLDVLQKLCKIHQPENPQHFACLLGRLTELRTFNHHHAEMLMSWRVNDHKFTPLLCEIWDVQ
Protocol Notes: Human FXR (NR1H4) Assay: Gal4 promoter driven luciferase reporter transactivation in CHO cells (Indigo Bioscience kit IB00601); also: efficacy normalized to CDCA set as 100%
Format: cell-based
Experimental Setup: CHO; read-out: Efficacy (%)
compounds and their reported Emax
Note: unit % is implicit; provide only the numeric part.

Some solved entries appear below for comparison.
- COc1cc(C(=O)NS(=O)(=O)C2(C)CC2)cc2sc(N3C4CCC3CC(NCc3c(-c5c(Cl)cccc5Cl)noc3C3CC3)C4)nc12 (stereo not shown): 139
- O=C(NS(=O)(=O)C1CC1)c1ccc2nc(N3CCC(NCc4c(-c5ccccc5OC(F)(F)F)noc4C4CC4)CC3)sc2c1: 63
- O=C(O)c1ccc2nc(N3CCC(NCc4c(-c5ccccc5OC(F)(F)F)noc4C4CC4)CC3)sc2c1: 107

GET /values?readout=Emax&system=human FXR (NR1H4) (Homo sapiens, UniProt Q96RI1)&item= CN(Cc1c(-c2c(Cl)cccc2Cl)noc1C1CC1)C1CCN(c2nc3ccc(C(=O)O)cc3s2)CC1
45

GET /values?readout=Emax&system=human FXR (NR1H4) (Homo sapiens, UniProt Q96RI1)&item= CC1(S(=O)(=O)NC(=O)c2ccc3nc(N4CCC(NCc5c(-c6ccccc6OC(F)(F)F)noc5C5CC5)CC4)sc3c2)CC1
80.5

GET /values?readout=Emax&system=human FXR (NR1H4) (Homo sapiens, UniProt Q96RI1)&item= COC(=O)c1ccc2nc(N3C4CCC3CC(NCc3c(-c5c(Cl)cccc5Cl)noc3C3CC3)C4)oc2c1 (stereo not shown)
78

GET /values?readout=Emax&system=human FXR (NR1H4) (Homo sapiens, UniProt Q96RI1)&item= COc1nc2cc(C(=O)O)ccc2nc1N1C2CCC1CC(NCc1c(-c3c(Cl)cccc3Cl)noc1C1CC1)C2 (stereo not shown)
140

GET /values?readout=Emax&system=human FXR (NR1H4) (Homo sapiens, UniProt Q96RI1)&item= O=C(O)c1cc(C2CC2)c2nc(N3C4CCC3CC(NCc3c(-c5ccccc5C(F)(F)F)noc3C3CC3)C4)sc2c1 (stereo not shown)
74.5

GET /values?readout=Emax&system=human FXR (NR1H4) (Homo sapiens, UniProt Q96RI1)&item= CC1(S(=O)(=O)NC(=O)c2ccc(N3C4CCC3CC(NCc3c(-c5ccccc5OC(F)(F)F)noc3C3CC3)C4)nc2)CC1 (stereo not shown)
46.5

GET /values?readout=Emax&system=human FXR (NR1H4) (Homo sapiens, UniProt Q96RI1)&item= O=C(NS(=O)(=O)N1CCCCC1)c1cc2sc(N3C4CCC3CC(NCc3c(-c5c(Cl)cccc5Cl)noc3C3CC3)C4)nc2cc1F (stereo not shown)
88.2
